Field: TR-FRET signal. Provide a value for each of the compounds that follow.
biological target: MAGE-A11:PCF11 (Homo sapiens (Human)); assay: TR-FRET single point screening at 15 μM; format: binding; design: unit not given here; conditions: single point TR-FRET screening at 15 μM against MAGE-A11:PCF11
Quick one: just the number, no unit, thanks!

Could you tell me which TR-FRET signal is on file for `COc1ccc2nc3cc(Cl)ccc3c(NCCCNCc3cccc4c3OCO4)c2c1` ?
−257.1

Now consider `Cc1ccc2ncc(S(=O)(=O)c3ccccc3)c(N3CCN(c4ccccc4F)CC3)c2c1` and answer again.
−33.48

Check `Clc1ccc2c(NC3CCN(CC4CCCCC4)CC3)ccnc2c1` too.
15.43

# repeat for `COc1ccc2nc3cc(Cl)ccc3c(NCCCNCc3ccc(Br)o3)c2c1`
−219.4

Please give the result for `Cc1cc(C)c(CN(CCCCNc2ccnc3cc(Cl)ccc23)Cc2ccccc2)c(C)c1` too.
26.03

Ok, now `COc1ccc2nc3cc(Cl)ccc3c(NCCCNCc3cn(C)c4ccccc34)c2c1`
−252.4

Also `Cc1csc(CN(CCCCNc2ccnc3cc(Cl)ccc23)Cc2ccccc2)n1` ?
−12.86

Input `CCCN(CCCNc1c2ccc(Cl)cc2nc2ccc(OC)cc12)CC1CCCCC1`
−163.9

`Cc1cccc(CN2CCC(Nc3ccnc4cc(Cl)ccc34)CC2)c1` ?
18.54

For `COc1ccccc1N1CCN(c2c(S(=O)(=O)c3ccccc3)cnc3ccc(C)cc23)CC1` then?
−19.55

Also `CCc1ccc2ncc(C(=O)c3ccccc3)c(N3CCN(CC)CC3)c2c1` ?
−2.261

And what about the compound `Cc1cc(NC(=O)CN2CCN(C(=O)c3ccco3)CC2)c2ccccc2n1` ?
−1.072

Query `COc1ccc2ncc(S(=O)(=O)c3ccc(C)cc3)c(N3CCN(c4ccc(F)cc4)CC3)c2c1` next
−118.5

Another compound: `CCOC(=O)c1cnc2ccc(Cl)cc2c1N1CCN(C)CC1`
−0.9277

And for `O=S(=O)(c1ccccc1)c1cnc2ccc(F)cc2c1N1CCN(c2ccccc2)CC1` ?
−31.1

Cool, now CCC(C)CNCCCNc1c2ccc(Cl)cc2nc2ccc(OC)cc12 (stereo not drawn)
−451.5

Now the same for `Clc1ccc2c(NC3CCN(Cc4ccc5ccccc5c4)CC3)ccnc2c1`
4.171

Now this one: `Clc1ccc2c(NCCCCN(Cc3ccccc3)Cc3cccnc3Br)ccnc2c1`
2.377

* * *

For each of the compounds below, state its IC50.
target: interaction between GST-MAGEA11 MHD and FAM-PCF11_4 peptide (MAGE-A11:PCF11) (Homo sapiens (Human)); assay: TR-FRET dose response competition assay for disruption of MAGE-A11:PCF11 binding; conditions: Dose response TR-FRET screening of nine scaffold groups against MAGE-A11:PCF11; read-out: consensus IC50
Sequence (P43364 218-429): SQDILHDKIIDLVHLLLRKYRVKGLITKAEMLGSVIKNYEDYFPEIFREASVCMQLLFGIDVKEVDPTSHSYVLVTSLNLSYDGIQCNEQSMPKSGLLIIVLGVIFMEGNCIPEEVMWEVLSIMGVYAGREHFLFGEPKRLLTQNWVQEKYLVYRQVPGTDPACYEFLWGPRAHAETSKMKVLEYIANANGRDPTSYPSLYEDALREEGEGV
The reply should be a number in µM, with the unit left off.

Which IC50 is listed for `COc1cccc(CNCCCNc2ccnc3cc(CCc4ccccc4)ccc23)c1O` ?
26.5

Now consider `COc1cccc(CNCCCNc2ccnc3cc(-c4ccccc4)ccc23)c1O` .
24.1

What do you get for `Cn1c2ccccc2c2cc(C(=O)N3CCc4nncn4CC3)ccc21` ?
69.9

What do you have for `Clc1ccc2c(NCCCNCc3ccc(-c4ccccc4)cc3)ccnc2c1` ?
34.9

Follow-up item: CCC(CO)NC1=C(Cl)C(=O)c2ccccc2C1=O (centres unmarked)
69.9

* * *

Please go through the items and note down their Papp at 2 h, 10 μmol/l.
assay: High throughput Caco-2 permeability; assay type: in vitro ADME; conditions: human, Caco-2, pH 7.4, basolateral to apical, 10 μmol/l, 2 h, 37° C.; read-out: Caco-2 permeability, B/A
All answers are understood in ×10⁻⁶ cm/s, so give the number only.

What value of Papp at 2 h, 10 μmol/l has been recorded for this entry: `c1ccc2c(NCCCNCc3ccc4[nH]ccc4c3)ccnc2c1`
8.09

Note, next up: `FC(F)(F)c1cc(-c2ccc3c(NCCCNCc4ccc5[nH]ccc5c4)ccnc3c2)cc(C(F)(F)F)c1`
0.229

Further, for `FC(F)(F)c1ccc2c(NCCCNCc3ccc4c(c3)OCO4)ccnc2c1` ?
40

Query `FC(F)(F)c1cc(-c2ccc3c(NCCCNCc4ccco4)ccnc3c2)cc(C(F)(F)F)c1` next
0.079

* * *

biological target: MAGE-A11:PCF11 (Homo sapiens (Human), UniProt P43364); assay: TR-FRET single point screening at 15 μM; assay type: binding; set-up: unit not given here; conditions: single point TR-FRET screening at 15 μM against MAGE-A11:PCF11
Sequence (P43364 218-429): as above
MEASURED QUANTITY: TR-FRET signal
Lab note: jot the number down without any unit.

Record request: TR-FRET signal value, item CCOC(=O)c1cnc2c(C)c(C)ccc2c1NCCN(C)C [SJ000134078]
8.538

Please answer likewise for COc1ccc(F)c(CNCCCNc2c3ccc(Cl)cc3nc3ccc(OC)cc23)c1 [SJ000520998]
−355

Let us now turn to O=S(=O)(c1ccccc1)c1cnc2ccc(F)cc2c1N1CCN(c2ccccc2F)CC1 [SJ000315166]
−99.06

Ok, now Cn1cc(CN(CCCCNc2ccnc3cc(Cl)ccc23)Cc2ccccc2)c2ccccc21 [SJ000520440]
−14.35

Likewise for CCOc1ccc2ncc(S(=O)(=O)c3ccccc3)c(N3CCN(c4ccc(F)cc4)CC3)c2c1 [SJ000083979] ?
−181.3

Ok, now CCOc1ccc2ncc(S(=O)(=O)c3ccc(C)cc3)c(N3CCN(c4ccccc4)CC3)c2c1 [SJ000117049]
−45.32

Now consider CCCN(CCCCNc1ccnc2cc(Cl)ccc12)Cc1c(F)cccc1OC [SJ000311203] and answer again.
6.844

Ok, now Cc1cccc(CN(CCCCNc2ccnc3cc(Cl)ccc23)Cc2ccccc2)c1 [SJ000361206]
29.54

What about COc1ccc2nc3cc(Cl)ccc3c(NCCCNCc3cccnc3)c2c1 [SJ000520986] ?
−409

// same read-out, input: COc1ccccc1N1CCN(c2c(S(=O)(=O)c3ccc(C)c(C)c3)cnc3ccccc23)CC1 [SJ000117068]
−5.706

Same question for CCN1CCN(c2c(S(=O)(=O)c3ccccc3)cnc3ccc(OC)cc23)CC1 [SJ000083958] please.
0.1242

Next: CCCN(CCCCNc1ccnc2cc(Cl)ccc12)Cc1ccccc1 [SJ000311205]
7.684

And what about the compound CCCN(CCCNc1c2ccc(Cl)cc2nc2ccc(OC)cc12)CCC(C)(C)C [SJ000522983] ?
−233.7

Would you mind doing CCOC(=O)c1cnc2c(C)cc(Cl)cc2c1NCCN(C)C [SJ000027210] as well?
3.834

Now consider Cc1ccc(CN(CCCCNc2ccnc3cc(Cl)ccc23)Cc2ccccc2)s1 [SJ000312687] .
20.71

// repeat for CCC(C)CN1CCC(Nc2ccnc3cc(Cl)ccc23)CC1 (stereo not drawn) [SJ000523105] and report
11.19

Proceed to CCCN(CCCNc1c2ccc(Cl)cc2nc2ccc(OC)cc12)Cc1ccc([N+](=O)[O-])o1 [SJ000523022]
−329.7

How about this compound: COc1ccccc1N1CCN(c2c(S(=O)(=O)c3ccc(C)cc3)cnc3ccc(C)cc23)CC1 [SJ000117066]
−92.89

* * *

biological target: MAGE-A11:PCF11 (Homo sapiens (Human)); assay: TR-FRET single point screening at 15 μM; type: binding; design: unit not given here; conditions: single point TR-FRET screening of quinoline compounds against MAGE-A11:PCF11; 15 μM
MEASURED QUANTITY: TR-FRET signal
The reply should be a number, written without any unit.

Sample `COc1ccc(CN(CCCNc2ccnc3cc(Cl)ccc23)Cc2ccccc2)cc1OC` — what was its TR-FRET signal?
−0.5383

`CCCN(CCCNc1c2ccc(Cl)cc2nc2ccc(OC)cc12)Cc1ccc(N(C)C)cc1` ?
−10.06

Cool, now `Clc1ccc2c(NCCCN(Cc3ccccc3)Cc3csc4ccccc34)ccnc2c1`
28.14

Now try `O=C(O)c1ccccc1CN(CCCNc1ccnc2cc(Cl)ccc12)Cc1ccccc1` .
9.598

How about this compound: `CCCN(CCCNc1ccnc2cc(C(F)(F)F)ccc12)Cc1ccc(N(C)C)cc1`
23.71

Same read-out for `Clc1ccc2c(NCCCNCC3CCCCC3)ccnc2c1` ?
15.63

`FC(F)(F)c1ccc2c(NCCCNCc3ccco3)ccnc2c1` , same question.
18.05

Field entry: `Clc1ccc2c(NCCCN(Cc3ccccc3)Cc3ccoc3)ccnc2c1`
12.84

Check `CCc1ccc(CN(CCCNc2ccnc3cc(Cl)ccc23)Cc2ccccc2)cc1` too.
18.89

Record: `Clc1ccc2c(NCCCNCc3csc4ccccc34)ccnc2c1`
33.38

Next compound: `Oc1c(F)cc(F)cc1CN(CCCNc1ccnc2cc(Cl)ccc12)Cc1ccccc1`
27.64

Same read-out for `Clc1ccc2c(NCCCNCC3CC3)ccnc2c1` ?
11.47

Another compound: `CCCN(CCCNc1ccnc2cc(Cl)ccc12)Cc1c[nH]c2ccc(F)cc12`
29.34

Thanks! And `Clc1ccc2c(NCCCNCc3ccc(Br)s3)ccnc2c1` ?
15.34

Also `Cc1csc(CN(CCCNc2ccnc3cc(Cl)ccc23)Cc2ccccc2)n1` ?
−10.47

Likewise for `FC(F)(F)c1ccc2c(NCCCNCC3CC3)ccnc2c1` ?
22.81

Likewise for `CC(C)(C)CCNCCCNc1ccnc2cc(C(F)(F)F)ccc12` ?
27.36

Another compound to check: `COc1ccc(F)c(CN(CCCNc2ccnc3cc(Cl)ccc23)Cc2ccccc2)c1`
4.762

Do the same for `CCCN(CCCCCC(=O)OC)CCCNc1c2ccc(Cl)cc2nc2ccc(OC)cc12` please
−37.41
